test: Photophysical properties of dyes in various solvents (absorbance, emission, quantum yield); format: physicochemical; conditions: solvent BuOH
Abs. λmax: recorded values

[
  {
    "SMILES_ENTRY": "CCN1/C(=C\\C=C\\C=C2C(=O)N(C)C(=S)N(C)C2=O)Sc2ccccc21",
    "Abs. λmax": "595 nm"
  },
  {
    "SMILES_ENTRY": "CCN1\\C(=C/C=C/C=C2/C(=O)c3ccccc3S2(=O)=O)Sc2ccccc21",
    "Abs. λmax": "604 nm"
  },
  {
    "SMILES_ENTRY": "CN1C(=O)C(=C/C=C/C=C2\\N(C)c3ccccc3C2(C)C)C(=O)N(C)C1=S",
    "Abs. λmax": "589 nm"
  },
  {
    "SMILES_ENTRY": "CN1\\C(=C/C=C/C=C2/C(=O)c3ccccc3S2(=O)=O)C(C)(C)c2ccccc21",
    "Abs. λmax": "587 nm"
  }
]

----------
assay: Photophysical properties of dyes in various solvents (absorbance, emission, quantum yield); type: physicochemical; settings: solvent MeOH
READOUT: ε (molar extinction coefficient)

[
  {
    "COMPOUND": "CCN1\\C(=C/C=C/C=C2/C(=O)c3ccccc3S2(=O)=O)Sc2ccccc21 [dye 2a]",
    "OBSERVED_RESULT": "(143000)"
  },
  {
    "COMPOUND": "CN1\\C(=C/C=C/C=C2/C(=O)c3ccccc3S2(=O)=O)C(C)(C)c2ccccc21 [dye 4a]",
    "OBSERVED_RESULT": "(143000)"
  }
]

----------
assay: Photophysical properties of dyes in various solvents (absorbance, emission, quantum yield); format: physicochemical; conditions: reactive forms, solvent MeOH
READOUT: ε (molar extinction coefficient)

[
  {
    "SMILES_ENTRY": "CC1(C)/C(=C/C=C/C=C2/C(=O)c3ccccc3S2(=O)=O)N(CCCS(=O)(=O)[O-])c2ccc(NC(=O)CI)cc21.[Na+]",
    "READOUT": "ε (molar extinction coefficient)",
    "OBSERVED_RESULT": "(138000)"
  },
  {
    "SMILES_ENTRY": "O=C(CSCCO)Nc1ccc2c(c1)S\\C(=C/C=C/C=C1/C(=O)c3ccccc3S1(=O)=O)N2CCCS(=O)(=O)[O-].[Na+]",
    "READOUT": "ε (molar extinction coefficient)",
    "OBSERVED_RESULT": "(138000)"
  },
  {
    "SMILES_ENTRY": "CC1(C)\\C(=C/C=C/C=C2/C(=O)c3ccccc3S2(=O)=O)N(CCCS(=O)(=O)[O-])c2ccc(NC(=O)CSCCO)cc21.[Na+]",
    "READOUT": "ε (molar extinction coefficient)",
    "OBSERVED_RESULT": "(140000)"
  },
  {
    "SMILES_ENTRY": "O=C(CI)Nc1ccc2c(c1)S/C(=C/C=C/C=C1/C(=O)c3ccccc3S1(=O)=O)N2CCCS(=O)(=O)[O-].[Na+]",
    "READOUT": "ε (molar extinction coefficient)",
    "OBSERVED_RESULT": "(140000)"
  },
  {
    "SMILES_ENTRY": "CN(C(=O)COCC(=O)ON1C(=O)CCC1=O)c1ccc2c(c1)C(C)(C)/C(=C/C=C/C=C1/C(=O)c3ccccc3S1(=O)=O)N2CCCS(=O)(=O)[O-].[Na+]",
    "READOUT": "ε (molar extinction coefficient)",
    "OBSERVED_RESULT": "(140000)"
  }
]

----------
ε × F: recorded values
assay: Photophysical properties of dyes in various solvents (absorbance, emission, quantum yield); assay type: physicochemical; parameters: unit not given here; conditions: solvent DMF

[
  {
    "SMILES_ENTRY": "CN1C(=O)C(=C/C=C/C=C2\\N(C)c3ccccc3C2(C)C)C(=O)N(C)C1=S",
    "ε × F": 172000
  },
  {
    "SMILES_ENTRY": "CCN1/C(=C\\C=C\\C=C2C(=O)N(C)C(=S)N(C)C2=O)Sc2ccccc21",
    "ε × F": 62000
  },
  {
    "SMILES_ENTRY": "CCN1\\C(=C/C=C/C=C2/C(=O)c3ccccc3S2(=O)=O)Sc2ccccc21",
    "ε × F": 38000
  },
  {
    "SMILES_ENTRY": "CN1\\C(=C/C=C/C=C2/C(=O)c3ccccc3S2(=O)=O)C(C)(C)c2ccccc21",
    "ε × F": 140000
  }
]

----------
test: Dye photo-bleaching under tungsten lamp irradiation; assay type: physicochemical; settings: MeOH
READOUT: Absolute rate constant of dye photo-bleaching, kph × 10^6 (s^−1)

[
  {
    "COMPOUND": "CCN1/C(=C\\C=C\\C=C2C(=O)N(C)C(=S)N(C)C2=O)Sc2ccccc21",
    "OBSERVED_RESULT": 4.3
  },
  {
    "COMPOUND": "CCN1/C(=C/C=C/C=C/C2=[N+](CCCCCC(=O)O)c3ccc(S(=O)(=O)O)cc3C2(C)C)C(C)(C)c2cc(S(=O)(=O)[O-])ccc21 [Cy5, reference compound]",
    "OBSERVED_RESULT": 1.0
  },
  {
    "COMPOUND": "CCN1\\C(=C/C=C/C=C2/C(=O)c3ccccc3S2(=O)=O)Sc2ccccc21",
    "OBSERVED_RESULT": 3.0
  },
  {
    "COMPOUND": "CN1\\C(=C/C=C/C=C2/C(=O)c3ccccc3S2(=O)=O)C(C)(C)c2ccccc21",
    "OBSERVED_RESULT": 0.28
  },
  {
    "COMPOUND": "CN1C(=O)C(=C/C=C/C=C2\\N(C)c3ccccc3C2(C)C)C(=O)N(C)C1=S",
    "OBSERVED_RESULT": 0.18
  }
]

----------
test: Photophysical properties of dyes in various solvents (absorbance, emission, quantum yield); assay type: physicochemical; settings: solvent MeOH

[
  {
    "SMILES_ENTRY": "CN1C(=O)C(=C/C=C/C=C2\\N(C)c3ccccc3C2(C)C)C(=O)N(C)C1=S",
    "Abs. λmax": "583 nm"
  },
  {
    "SMILES_ENTRY": "CN1\\C(=C/C=C/C=C2/C(=O)c3ccccc3S2(=O)=O)C(C)(C)c2ccccc21",
    "Abs. λmax": "586 nm"
  },
  {
    "SMILES_ENTRY": "CCN1\\C(=C/C=C/C=C2/C(=O)c3ccccc3S2(=O)=O)Sc2ccccc21",
    "Abs. λmax": "598 nm"
  },
  {
    "SMILES_ENTRY": "CCN1/C(=C\\C=C\\C=C2C(=O)N(C)C(=S)N(C)C2=O)Sc2ccccc21",
    "Abs. λmax": "583 nm"
  }
]

----------
experiment: Photophysical properties of dyes in various solvents (absorbance, emission, quantum yield); type: physicochemical; design: unit not given here; conditions: solvent C6H6
ε × F: recorded values
READOUT: ε × F

[
  {
    "SMILES_ENTRY": "CCN1/C(=C\\C=C\\C=C2C(=O)N(C)C(=S)N(C)C2=O)Sc2ccccc21",
    "READOUT": "ε × F",
    "OBSERVED_RESULT": 68000
  },
  {
    "SMILES_ENTRY": "CCN1\\C(=C/C=C/C=C2/C(=O)c3ccccc3S2(=O)=O)Sc2ccccc21",
    "READOUT": "ε × F",
    "OBSERVED_RESULT": 24000
  },
  {
    "SMILES_ENTRY": "CN1C(=O)C(=C/C=C/C=C2\\N(C)c3ccccc3C2(C)C)C(=O)N(C)C1=S",
    "READOUT": "ε × F",
    "OBSERVED_RESULT": 26000
  },
  {
    "SMILES_ENTRY": "CN1\\C(=C/C=C/C=C2/C(=O)c3ccccc3S2(=O)=O)C(C)(C)c2ccccc21",
    "READOUT": "ε × F",
    "OBSERVED_RESULT": 46000
  }
]

----------
ε × Φ: recorded values
assay: Photophysical properties of dyes in various solvents (absorbance, emission, quantum yield); format: physicochemical; settings: reactive forms, solvent MeOH

[
  {
    "SMILES_ENTRY": "CC1(C)\\C(=C/C=C/C=C2/C(=O)c3ccccc3S2(=O)=O)N(CCCS(=O)(=O)[O-])c2ccc(NC(=O)CSCCO)cc21.[Na+]",
    "ε × Φ": 6000
  },
  {
    "SMILES_ENTRY": "CN(C(=O)COCC(=O)ON1C(=O)CCC1=O)c1ccc2c(c1)C(C)(C)/C(=C/C=C/C=C1/C(=O)c3ccccc3S1(=O)=O)N2CCCS(=O)(=O)[O-].[Na+]",
    "ε × Φ": 7000
  },
  {
    "SMILES_ENTRY": "CC1(C)/C(=C/C=C/C=C2/C(=O)c3ccccc3S2(=O)=O)N(CCCS(=O)(=O)[O-])c2ccc(NC(=O)CI)cc21.[Na+]",
    "ε × Φ": 1400
  },
  {
    "SMILES_ENTRY": "O=C(CSCCO)Nc1ccc2c(c1)S\\C(=C/C=C/C=C1/C(=O)c3ccccc3S1(=O)=O)N2CCCS(=O)(=O)[O-].[Na+]",
    "ε × Φ": 8000
  },
  {
    "SMILES_ENTRY": "O=C(CI)Nc1ccc2c(c1)S/C(=C/C=C/C=C1/C(=O)c3ccccc3S1(=O)=O)N2CCCS(=O)(=O)[O-].[Na+]",
    "ε × Φ": 3000
  }
]

// data source = patent US7592188B2
